Tested on: Escherichia coli TOP10
assayComment: shrunken log2 fold change of peptide-encoding DNA abundance (4.5 h post-induction vs induction); higher = less antimicrobial activity (less host growth inhibition)
testSettings: time post-induction: 4.5 h; library: site-saturation at positions 5, 18, 19, 20
Threshold rule: shrunken log2 fold change greater than or equal to 0.03 is Y; below that, N.

Query :: Is the recorded value of shrunken log2 fold change equal to or greater than 0.03 for this sequence? RRIRARPPRLPRPRPRPKQHPRP
Result :: Y

Query :: Field entry: RRIRQRPPRLPRPRPRPTYCPRP
Result :: N

Query :: Field entry: RRIRNRPPRLPRPRPRPTDGPRP
Result :: N

Query :: Field entry: RRIRPRPPRLPRPRPRPHQIPRP
Result :: Y

Query :: Field entry: RRIRHRPPRLPRPRPRPAYTPRP
Result :: N

Query :: Field entry: RRIRTRPPRLPRPRPRPASEPRP
Result :: N

Query :: Field entry: RRIRPRPPRLPRPRPRPMQWPRP
Result :: Y

Query :: Field entry: RRIRNRPPRLPRPRPRPHNTPRP
Result :: N

Query :: Field entry: RRIRIRPPRLPRPRPRPLRDPRP
Result :: Y

Query :: Field entry: RRIRRRPPRLPRPRPRPGSFPRP
Result :: Y

Query :: Field entry: RRIRWRPPRLPRPRPRPWVTPRP
Result :: N

Query :: Field entry: RRIRWRPPRLPRPRPRPWGTPRP
Result :: N

Query :: Field entry: RRIRPRPPRLPRPRPRPKFQPRP
Result :: Y

Query :: Field entry: RRIRERPPRLPRPRPRPSKMPRP
Result :: N

Query :: Field entry: RRIRPRPPRLPRPRPRPVCPPRP
Result :: N

Query :: Field entry: RRIRVRPPRLPRPRPRPSQDPRP
Result :: N

Query :: Field entry: RRIRMRPPRLPRPRPRPRSKPRP
Result :: Y

Query :: Field entry: RRIRDRPPRLPRPRPRPPFTPRP
Result :: Y

Query :: Field entry: RRIRNRPPRLPRPRPRPECGPRP
Result :: Y

###

Below: a set of entries, each annotated with reported shrunken log2 fold change.
Test system: Escherichia coli TOP10
assayComment: shrunken log2 fold change of peptide-encoding DNA abundance (4.5 h post-induction vs induction); higher = less antimicrobial activity (less host growth inhibition)
testSettings: time post-induction: 4.5 h; library: site-saturation at positions 5, 18, 19, 20
Answer with the value's number alone.

Known shrunken log2 fold change results, listed for orientation:
>  <residueCodes>
RRIRIRPPRLPRPRPRPDTHPRP

>  <shrunken log2 fold change>
-1.12

$$$$
>  <residueCodes>
RRIRVRPPRLPRPRPRPKSFPRP

>  <shrunken log2 fold change>
0.217

$$$$
>  <residueCodes>
RRIRMRPPRLPRPRPRPPSMPRP

>  <shrunken log2 fold change>
0.761

$$$$
>  <residueCodes>
RRIRCRPPRLPRPRPRPSCEPRP

>  <shrunken log2 fold change>
-0.493

$$$$
>  <residueCodes>
RRIRDRPPRLPRPRPRPMLRPRP

>  <shrunken log2 fold change>
0.0179

$$$$

Query :: # input sequence: RRIRWRPPRLPRPRPRPAVVPRP ; wanted: its shrunken log2 fold change
Result :: 0.0979

###

System: Escherichia coli TOP10
assayComment: shrunken log2 fold change of peptide-encoding DNA abundance (4.5 h post-induction vs induction); higher = less antimicrobial activity (less host growth inhibition)
testSettings: time post-induction: 4.5 h; library: site-saturation at positions 5, 18, 19, 20
Threshold rule: shrunken log2 fold change greater than or equal to -0.001 is Satisfied; below that, Not satisfied.

Known results for sequences:
>  <residueCodes>
RRIRQRPPRLPRPRPRPLLRPRP

>  <assignedClass>
Not satisfied

$$$$
>  <residueCodes>
RRIRKRPPRLPRPRPRPVWCPRP

>  <assignedClass>
Not satisfied

$$$$
>  <residueCodes>
RRIRKRPPRLPRPRPRPWSRPRP

>  <assignedClass>
Not satisfied

$$$$

Query :: Is the recorded value of shrunken log2 fold change equal to or greater than -0.001 for this sequence? RRIRIRPPRLPRPRPRPCVEPRP
Result :: Not satisfied

Query :: Field entry: RRIRFRPPRLPRPRPRPHSEPRP
Result :: Not satisfied

Query :: Field entry: RRIRLRPPRLPRPRPRPCEVPRP
Result :: Satisfied

Query :: Field entry: RRIRTRPPRLPRPRPRPLAAPRP
Result :: Satisfied

###

System: Escherichia coli TOP10
assayComment: shrunken log2 fold change of peptide-encoding DNA abundance (4.5 h post-induction vs induction); higher = less antimicrobial activity (less host growth inhibition)
testSettings: time post-induction: 4.5 h; library: site-saturation at positions 5, 18, 19, 20
Threshold rule: shrunken log2 fold change greater than or equal to 0.006 is true; below that, false.

Known results for sequences:
>  <residueCodes>
RRIRNRPPRLPRPRPRPNNTPRP

>  <assignedClass>
false

$$$$
>  <residueCodes>
RRIRKRPPRLPRPRPRPTHHPRP

>  <assignedClass>
true

$$$$
>  <residueCodes>
RRIRWRPPRLPRPRPRPCWNPRP

>  <assignedClass>
true

$$$$

Query :: Is the recorded value of shrunken log2 fold change equal to or greater than 0.006 for this sequence? RRIRLRPPRLPRPRPRPYYQPRP
Result :: false

Query :: Field entry: RRIRNRPPRLPRPRPRPVFLPRP
Result :: false

Query :: Field entry: RRIRYRPPRLPRPRPRPHAAPRP
Result :: false

Query :: Field entry: RRIRHRPPRLPRPRPRPITTPRP
Result :: false

###

System: Escherichia coli TOP10
assayComment: shrunken log2 fold change of peptide-encoding DNA abundance (4.5 h post-induction vs induction); higher = less antimicrobial activity (less host growth inhibition)
testSettings: time post-induction: 4.5 h; library: site-saturation at positions 5, 18, 19, 20
Below: a set of entries, each annotated with reported shrunken log2 fold change.

Known shrunken log2 fold change results, listed for orientation:
>  <residueCodes>
RRIRPRPPRLPRPRPRPIQMPRP

>  <targetOrSystem>
Escherichia coli TOP10

>  <shrunken log2 fold change>
-0.166

$$$$
>  <residueCodes>
RRIRPRPPRLPRPRPRPKVTPRP

>  <targetOrSystem>
Escherichia coli TOP10

>  <shrunken log2 fold change>
0.0845

$$$$

Query :: # input sequence: RRIRVRPPRLPRPRPRPEIFPRP ; wanted: its shrunken log2 fold change
Result :: 0.00503

Query :: Field entry: RRIRRRPPRLPRPRPRPKYEPRP
Result :: 0.811

###

Tested on: Escherichia coli TOP10
assayComment: shrunken log2 fold change of peptide-encoding DNA abundance (4.5 h post-induction vs induction); higher = less antimicrobial activity (less host growth inhibition)
testSettings: time post-induction: 4.5 h; library: site-saturation at positions 5, 18, 19, 20
Below: a set of entries, each annotated with reported shrunken log2 fold change.
Answer with the value's number alone.

Known shrunken log2 fold change results, listed for orientation:
>  <residueCodes>
RRIRCRPPRLPRPRPRPDCKPRP

>  <shrunken log2 fold change>
-0.392

$$$$
>  <residueCodes>
RRIRQRPPRLPRPRPRPFFNPRP

>  <shrunken log2 fold change>
-0.438

$$$$
>  <residueCodes>
RRIRFRPPRLPRPRPRPNWFPRP

>  <shrunken log2 fold change>
0.0383

$$$$

Query :: # input sequence: RRIRERPPRLPRPRPRPMVYPRP ; wanted: its shrunken log2 fold change
Result :: -0.119

Query :: Field entry: RRIRYRPPRLPRPRPRPDPRPRP
Result :: -0.0317

Query :: Field entry: RRIRLRPPRLPRPRPRPGMRPRP
Result :: 0.787

Query :: Field entry: RRIRQRPPRLPRPRPRPYFCPRP
Result :: -0.396

###

Below: a set of entries, each annotated with reported shrunken log2 fold change.
System: Escherichia coli TOP10
assayComment: shrunken log2 fold change of peptide-encoding DNA abundance (4.5 h post-induction vs induction); higher = less antimicrobial activity (less host growth inhibition)
testSettings: time post-induction: 4.5 h; library: site-saturation at positions 5, 18, 19, 20
Answer with the value's number alone.

Known shrunken log2 fold change results, listed for orientation:
>  <residueCodes>
RRIRYRPPRLPRPRPRPKSLPRP

>  <reportedResult>
-0.204

$$$$
>  <residueCodes>
RRIRWRPPRLPRPRPRPCNYPRP

>  <reportedResult>
-0.2

$$$$
>  <residueCodes>
RRIRHRPPRLPRPRPRPFINPRP

>  <reportedResult>
-0.205

$$$$

Would you kindly look at the next entry?
Query :: # input sequence: RRIRERPPRLPRPRPRPWDHPRP ; wanted: its shrunken log2 fold change
Result :: -0.204

###

Test system: Escherichia coli TOP10;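 note: peptides expressed intracellularly from a pBAD plasmid library in pooled LB shake-flask culture, induced with 0.3% L-arabinose, DNA abundance read by NGS, three biological replicates, DESeq2 with apeglm shrinkage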
assayComment: shrunken log2 fold change of peptide-encoding DNA abundance (4.5 h post-induction vs induction); higher = less antimicrobial activity (less host growth inhibition)
testSettings: time post-induction: 4.5 h; library: site-saturation at positions 5, 18, 19, 20
Below: a set of entries, each annotated with reported shrunken log2 fold change.
Answer with the value's number alone.

>  <residueCodes>
RRIRVRPPRLPRPRPRPYPDPRP

>  <shrunken log2 fold change>
-0.293

$$$$

Query :: Give shrunken log2 fold change (Escherichia coli TOP10) of the following sequence: RRIRSRPPRLPRPRPRPNCIPRP
Result :: -0.416

Query :: Field entry: RRIRIRPPRLPRPRPRPDFGPRP
Result :: -0.196

Query :: Field entry: RRIRYRPPRLPRPRPRPMLYPRP
Result :: -0.877

Query :: Field entry: RRIRGRPPRLPRPRPRPEHTPRP
Result :: 0.0464

Values from the supplement of paper PMC9112550
